Where do these numbers come from? They come from the nanobody polyreactivity screen of Harvey et al. (2022).

- experimental.details: yeast display, Sf9 membrane polyspecificity reagent, FACS + sequencing; frameworks hold sequencing errors
outcome.measure: polyreactivity (PSR sort gate)

{"construct.sequence": "QVQLVESGGGLVQAGGSLRLSCAASGIIFRGNALGWYRPAPGKERELVAAISRSGRTNYADSVKGRFTISRDNAKNTVYLQMNSLKPEDNAVYYCAVDKRYGRVVGRDYDYWGQGTQVTVSS", "result": "high polyreactivity"}
{"construct.sequence": "QVQLVESGGGLVQAGGSLRLSCAASGGTFTKNAMGWYRQAPGKERELVAAINYSGGSTYYADSVKGRFTISRDNAKNTVYLQMNSLKPEDTAVYYCAADDYRDGFTQYDYWGQGTQVTVSS", "result": "low polyreactivity"}
{"construct.sequence": "QVQLVESGGGLVQAGGSLRLSCAASGFTFDIYGMGWYRQAPGKERELVASITSRSARTNYADSVKGRFRISRDNAMNTVYLQMNSLKPEDSAVYYCAADPYTGYTYYWGQVTQVTVSS", "result": "high polyreactivity"}
{"construct.sequence": "QVQLVESGGGLVQAGGSLLLSCAASGFTFGFNAMGWYRQAPGQERELGAAISRGGSTNYADSVKGRFTISRDNAKNTVYVQMNSLKPEDTAVYDCAADFITYVFRFYYWGQGTLVTVSS", "result": "low polyreactivity"}
{"construct.sequence": "QVQLVESGGGLVQAGGSLRLSCAASGRIFSINAMGWYRQAPGKERELVASISSGGSTKYADSVKGRFTISRDNAKNTVYLQMNSLKPEDTAVYYCAARGRVYRYGYWGQGTQVTVSS", "result": "high polyreactivity"}
